Some compounds, each annotated with its measured pIC50.
- Test system: 966289-007-R4-J1-PDC complex spheroid viability
- Protocol summary: Anticancer human tumor 966289-007-R4-J1-PDC patient-derived pancreatic adenocarcinoma cell line growth inhibition [RAS]
- Condition label: curve of first compound; second compound 0.3 µM
pIC50: −log10 of the molar value.
Experimental readout: pIC50

C[C@@H](NC(=O)c1ncnc(N)c1Cl)c1ncc(C(=O)Nc2cc(C(F)(F)F)c(Cl)cn2)s1 + CCn1c(-c2cccnc2C(C)OC)c2c3cc(ccc31)N1CCOC(CC(NC(=O)C(C(C)C)N(C)C(=O)C3(F)CCN(C(=O)C#CC(C)(C)N(C)C)CC3)C(=O)N3CCCC(N3)C(=O)OCC(C)(C)C2)C1	< 5.00
CCN1CCN(Cc2ccc(Nc3ncc(F)c(-c4cc(F)c5nc(C)n(C(C)C)c5c4)n3)nc2)CC1 + CCn1c(-c2cc(N3CCN(C)CC3)cnc2C(C)OC)c2c3cc(ccc31)-c1csc(n1)CC(NC(=O)C1CC1C)C(=O)N1CCCC(N1)C(=O)OCC(C)(C)C2	< 6.00
CC(Nc1ccc2c(c1)OCCn1cc(N3C(=O)OCC3C(F)F)nc1-2)C(N)=O (centres undefined) + CCn1c(-c2cccnc2C(C)OC)c2c3cc(ccc31)N1CCOC(CC(NC(=O)C(C(C)C)N(C)C(=O)C3(F)CCN(C(=O)C#CC(C)(C)N(C)C)CC3)C(=O)N3CCCC(N3)C(=O)OCC(C)(C)C2)C1	< 5.00
C=CC(=O)N1CCN(c2nc(OCC3CCCN3C)nc3c(F)c(-c4nc(N)cc(C)c4C(F)(F)F)c(Cl)cc23)C(C)C1 (centres undefined) + CCn1c(-c2cc(N3CCN(C)CC3)cnc2C(C)OC)c2c3cc(ccc31)-c1csc(n1)CC(NC(=O)C1CC1C)C(=O)N1CCCC(N1)C(=O)OCC(C)(C)C2	< 6.00

---

- System: 966289-007-R4-J1-PDC complex spheroid viability
- Protocol summary: Anticancer human tumor 966289-007-R4-J1-PDC cell line growth inhibition [RAS];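 note: spheroids exposed to agents for one week before readout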;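 for viability, T/C: percent viability relative to DMSO vehicle control wells as 100%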
- Condition label: second compound 0.3 µM; first compound 0.316 µM; stronger effect = lower value
Reported viability, T/C values are given for each entry in this list.
Experimental readout: viability, T/C (%)

CC(Nc1ccc2c(c1)OCCn1cc(N3C(=O)OCC3C(F)F)nc1-2)C(N)=O (stereo not drawn) + CCn1c(-c2cc(N3CCN(C)CC3)cnc2C(C)OC)c2c3cc(ccc31)-c1csc(n1)CC(NC(=O)C1CC1C)C(=O)N1CCCC(N1)C(=O)OCC(C)(C)C2	90.3
C[C@@H](NC(=O)c1ncnc(N)c1Cl)c1ncc(C(=O)Nc2cc(C(F)(F)F)c(Cl)cn2)s1 + CCn1c(-c2cccnc2C(C)OC)c2c3cc(ccc31)N1CCOC(CC(NC(=O)C(C(C)C)N(C)C(=O)C3(F)CCN(C(=O)C#CC(C)(C)N(C)C)CC3)C(=O)N3CCCC(N3)C(=O)OCC(C)(C)C2)C1	90.5
CCN1CCN(Cc2ccc(Nc3ncc(F)c(-c4cc(F)c5nc(C)n(C(C)C)c5c4)n3)nc2)CC1 + CCn1c(-c2cccnc2C(C)OC)c2c3cc(ccc31)N1CCOC(CC(NC(=O)C(C(C)C)N(C)C(=O)C3(F)CCN(C(=O)C#CC(C)(C)N(C)C)CC3)C(=O)N3CCCC(N3)C(=O)OCC(C)(C)C2)C1	91
